# Test system: RSK4(Kin.Dom.1-N-terminal)
# Construct: gene RPS6KA6
# Details: concentration: 1 μM,replicates: in singlicate; n = 1;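 note: KINOMEscan kinase panel screen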
Property: %Inh (%)

                                    compound  reported
 0  CC(C)N1C(=O)Cc2cc(Nc3ncc(C(F)(F)F)c(NCc4cccc(S(C)(=O)=O)c4)n3)ccc21        57
 1  C=CC(=O)Nc1cc2c(Nc3ccc(F)c(Cl)c3)ncnc2cc1OCCCN1CCOCC1         0
 2  COc1ccc(C[C@@H](CN)NC(=O)c2cc(Br)c(-c3ccnc4[nH]ccc34)s2)cc1.Cl.Cl        88
 3  Cl.Cl.Nc1nc(-c2ccc3c(N)n[nH]c3c2)cc(N2CCCC(NC(=O)c3ccccc3)C2)n1 (stereo not drawn)         0
 4  CCn1c(-c2nonc2N)nc2c(C#CC(C)(C)O)nc(OCCN)cc21.Cl.Cl         2
 5  C[C@H]1Oc2cc(cnc2N)-c2c(nn(C)c2C#N)CN(C)C(=O)c2ccc(F)cc21         0
 6  CN(C)CCOc1ccc(-c2cc(-c3c[nH]nc3-c3ccccn3)ccn2)cc1        19
 7  C[C@@H](Oc1cc(-c2cnn(C3CCNCC3)c2)cnc1N)c1c(Cl)ccc(F)c1Cl        29
 8   CC(C)Nc1cc(-c2ccc3c(N)n[nH]c3c2)nc(N)n1        41
 9  NC(=O)c1cc(-c2ccccc2)cc2c(C3CCNCC3)c[nH]c12         0
10  Cl.Oc1cc(-c2nc(-c3ccccc3)[nH]c2-c2ccncc2)ccc1Cl        22
11  Nc1nc(Nc2ccccc2)cc(-c2ccc3c(N)n[nH]c3c2)n1        32

====

# System: YANK3
# Construct: gene STK32C
# Details: concentration: 1 μM,replicates: in singlicate; n = 1
%Inh values for the molecules below.
Property: %Inh (%)

>>> df
                                   molecule  measurement_units  reported
0  CN(C)CCOc1ccc(-c2cc(-c3c[nH]nc3-c3ccccn3)ccn2)cc1 [GW835314]                  %         0
1  Cc1cc2cn[nH]c2cc1-c1cccc2c(N)c(C(N)=O)nnc12                  %         0
2  C[C@@H](Oc1cc(-c2cnn(C3CCNCC3)c2)cnc1N)c1c(Cl)ccc(F)c1Cl                  %         0
3  CCn1c(-c2nonc2N)nc2c(C#CC(C)(C)O)nc(OCCN)cc21.Cl.Cl [GSK902056]                  %        35
4  CCN(CC)CCCCNc1ncc2cc(-c3c(Cl)cccc3Cl)c(NC(=O)NC(C)(C)C)nc2n1                  %         0
5  Cl.Cl.Nc1nc(-c2ccc3c(N)n[nH]c3c2)cc(N2CCCC(NC(=O)c3ccccc3)C2)n1 (stereo not drawn) [GSK2286775]                  %         0

====

# Test system: YANK1
# Construct: gene STK32A
# Details: concentration: 1 μM,replicates: in singlicate; n = 1
Mark 0 for %Inh values under 4%, and 1 for everything at or above.

>>> print(df.to_string())
                                   compound  group_label
0  C=CC(=O)Nc1cc2c(Nc3ccc(F)c(Cl)c3)ncnc2cc1OCCCN1CCOCC1 [GW781483]            1
1  Cc1cc2cn[nH]c2cc1-c1cccc2c(N)c(C(N)=O)nnc12            1
2  Cc1ccc(-n2nc(C(C)(C)C)cc2NC(=O)Nc2ccc(OCCN3CCOCC3)c3ccccc23)cc1 [GW839464]            0
3  CC(C)N1C(=O)Cc2cc(Nc3ncc(C(F)(F)F)c(NCc4cccc(S(C)(=O)=O)c4)n3)ccc21            1
4  Cc1cc(C(=O)Nc2ccc(Oc3ccc4nc(NC(=O)C5CC5)cn4n3)cc2)nn1-c1ccccc1            0
5  Cc1ccc2c(-c3ccncc3)c(-c3ccc(F)cc3)nn2c1.Cl [GW461484]            1
6  C[C@@H](Oc1cc(-c2cnn(C3CCNCC3)c2)cnc1N)c1c(Cl)ccc(F)c1Cl            1
